Reference for the values: the kinase profiling compilation of Christmann-Franck et al. (2016)

- test system: UniProtKB Q8IW41
- Sequence (Q8IW41 whole entry, looked up): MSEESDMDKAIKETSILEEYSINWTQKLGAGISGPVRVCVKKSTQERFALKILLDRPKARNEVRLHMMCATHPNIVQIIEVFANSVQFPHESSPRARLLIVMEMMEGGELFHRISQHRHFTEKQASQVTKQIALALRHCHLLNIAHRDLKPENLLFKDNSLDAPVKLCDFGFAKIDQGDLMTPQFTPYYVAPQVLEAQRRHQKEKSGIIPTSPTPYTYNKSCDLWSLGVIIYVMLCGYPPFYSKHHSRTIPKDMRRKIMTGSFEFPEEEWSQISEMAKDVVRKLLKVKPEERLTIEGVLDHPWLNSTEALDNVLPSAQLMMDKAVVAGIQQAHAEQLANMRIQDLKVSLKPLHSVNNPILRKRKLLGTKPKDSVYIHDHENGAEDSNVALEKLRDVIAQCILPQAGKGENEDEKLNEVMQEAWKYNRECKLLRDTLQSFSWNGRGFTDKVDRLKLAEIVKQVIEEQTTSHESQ
- test details: Caliper, Mobility shift assay off-chip
- applied conditions: compound 0.1 µM
inhibition listing for selected compounds.
Give just the number in %; leave the unit off.

Here's what some known entries look like.
> print(dat)
                                   compound  unit.spec  measurement
1  Cn1cc(-c2cnc3ccc4ccc(CS(N)(=O)=O)cc4c(=O)c3c2)cn1          %          1.3
2  O=c1c2cc(CS(=O)(=O)NCc3ccccn3)ccc2ccc2ncc(C3CCNCC3)cc12          %          1.6
3  Cn1cc(-c2cnc3ccc4ccc(CS(=O)(=O)NCC5CCCCN5)cc4c(=O)c3c2)cn1 (centres undefined)          %         -4.3

Just so you know, measured inhibition for `Cn1cc(-c2cnc3ccc4ccc(CS(=O)(=O)CCc5ccccn5)cc4c(=O)c3c2)cn1` came out at -20.9

###

inhibition listing for selected compounds.
- test system: GSK3B (human) (UniProt P49841)
- Sequence (P49841 whole entry, looked up): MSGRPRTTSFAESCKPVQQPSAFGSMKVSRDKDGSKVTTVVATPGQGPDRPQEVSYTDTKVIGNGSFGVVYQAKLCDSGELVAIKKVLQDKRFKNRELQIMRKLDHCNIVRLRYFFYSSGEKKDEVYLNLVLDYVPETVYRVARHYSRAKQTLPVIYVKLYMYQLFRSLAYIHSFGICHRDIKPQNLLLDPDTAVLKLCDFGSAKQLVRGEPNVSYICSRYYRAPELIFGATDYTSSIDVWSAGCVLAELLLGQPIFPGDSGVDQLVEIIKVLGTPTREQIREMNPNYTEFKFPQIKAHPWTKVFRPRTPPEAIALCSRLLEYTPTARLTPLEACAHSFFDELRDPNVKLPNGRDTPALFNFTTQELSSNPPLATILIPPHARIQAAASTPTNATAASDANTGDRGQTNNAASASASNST
- test details: Caliper, Mobility shift assay off-chip
- applied conditions: compound 0.1 µM
Give just the number in %; leave the unit off.

> print(dat)
                         chemical.structure                     test.system  unit.spec  measurement
1  O=C(CCc1ccc2ccc3ncc(C4CCNCC4)cc3c(=O)c2c1)NCc1ccccn1  GSK3B (human) (UniProt P49841)          %         -0.6
2  Cn1cc(-c2cnc3ccc4ccc(CS(=O)(=O)CCc5ccccn5)cc4c(=O)c3c2)cn1  GSK3B (human) (UniProt P49841)          %         -3.5

Now turn to the next compound.
Just so you know, measured inhibition for `CN(c1ccc2ccc3ncc(-c4cnn(C)c4)cc3c(=O)c2c1)S(=O)(=O)NCc1ccccn1` came out at -6.8
